Please consider the recorded AC50 for D(1A) dopamine receptor (Homo sapiens) in what follows.

CO[C@H]1/C=C/O[C@@]2(C)Oc3c(C)c(O)c4c(O)c(c(/C=N/N5CCN(C)CC5)c(O)c4c3C2=O)NC(=O)/C(C)=C\C=C\[C@H](C)[C@H](O)[C@@H](C)[C@@H](O)[C@@H](C)[C@H](OC(C)=O)[C@@H]1C [RIFAMPIN] yielded AC50 of > 10 µM

Cc1onc(-c2ccccc2)c1-c1ccc(S(N)(=O)=O)cc1 [VALDECOXIB] yielded AC50 of > 10 µM

CCC(=O)O[C@]1(C(=O)SCF)[C@H](C)C[C@H]2[C@@H]3C[C@H](F)C4=CC(=O)C=C[C@]4(C)[C@@]3(F)[C@@H](O)C[C@@]21C [FLUTICASONE PROPIONATE] yielded AC50 of > 10 µM

COc1ccccc1OCCNCC(O)COc1cccc2[nH]c3ccccc3c12 (stereo unspecified) [CARVEDILOL] yielded AC50 of 2.28 µM

CC(=O)[C@@]1(O)CC[C@H]2[C@@H]3C=C(Cl)C4=CC(=O)[C@@H]5C[C@@H]5[C@]4(C)[C@H]3CC[C@@]21C [CYPROTERONE] yielded AC50 of > 10 µM

CCOC(=O)C1=C(C)NC(C)=C(C(=O)OC)C1c1cccc([N+](=O)[O-])c1 (stereo unspecified) [NITRENDIPINE] yielded AC50 of > 10 µM

----------
Would you kindly list AC50 for each of these compounds?

The reported D(1A) dopamine receptor (Homo sapiens) AC50 of Cc1cc(NC(=O)C2=C(O)c3ccccc3S(=O)(=O)N2C)no1 is > 30 µM

The reported D(1A) dopamine receptor (Homo sapiens) AC50 of CC(C)(O)CNc1nc(Nc2ccnc(C(F)(F)F)c2)nc(-c2cccc(C(F)(F)F)n2)n1 is > 30 µM

The reported D(1A) dopamine receptor (Homo sapiens) AC50 of C#C[C@]1(O)CC[C@H]2[C@@H]3CCC4=CC(=O)CC[C@@H]4[C@H]3C(=C)C[C@@]21CC is > 30 µM

The reported D(1A) dopamine receptor (Homo sapiens) AC50 of [H]/N=C(\N/C(=N/[H])Nc1ccc(Cl)cc1)NC(C)C is 8.26 µM

The reported D(1A) dopamine receptor (Homo sapiens) AC50 of O=C(O)CO is > 30 µM

The reported D(1A) dopamine receptor (Homo sapiens) AC50 of CC[C@H]1OC(=O)[C@H](C)C(=O)[C@H](C)[C@@H](O[C@@H]2O[C@H](C)C[C@H](N(C)C)[C@H]2O)[C@](C)(OC)C[C@@H](C)C(=O)[C@H](C)[C@H]2N(CCCCn3cnc(-c4cccnc4)c3)C(=O)O[C@]12C is > 30 µM

The reported D(1A) dopamine receptor (Homo sapiens) AC50 of CCn1cc(C(=O)O)c(=O)c2cc3c(cc21)OCO3 is > 30 µM

The reported D(1A) dopamine receptor (Homo sapiens) AC50 of C[C@H]1O[C@@H](n2cc(F)c(=O)[nH]c2=O)[C@H](O)[C@@H]1O is > 30 µM

The reported D(1A) dopamine receptor (Homo sapiens) AC50 of O=C1/C(=C2\Nc3ccc(S(=O)(=O)O)cc3C2=O)Nc2ccc(S(=O)(=O)O)cc21 [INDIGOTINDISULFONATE] is > 30 µM

The reported D(1A) dopamine receptor (Homo sapiens) AC50 of CCC(=O)O[C@]1(C(=O)SCF)[C@H](C)C[C@H]2[C@@H]3C[C@H](F)C4=CC(=O)C=C[C@]4(C)[C@@]3(F)[C@@H](O)C[C@@]21C [FLUTICASONE PROPIONATE] is > 30 µM

The reported D(1A) dopamine receptor (Homo sapiens) AC50 of CN1C(=O)/C(=N\NC(N)=S)c2ccccc21 is > 30 µM

The reported D(1A) dopamine receptor (Homo sapiens) AC50 of COc1ccc(CN(CCN(C)C)c2ccccn2)cc1 is 24.2 µM

The reported D(1A) dopamine receptor (Homo sapiens) AC50 of C[C@@H]1C[C@H]2[C@@H]3CCC4=CC(=O)C=C[C@]4(C)[C@@]3(Cl)[C@@H](O)C[C@]2(C)[C@@]1(OC(=O)c1ccco1)C(=O)CCl [MOMETASONE FUROATE] is > 30 µM

The reported D(1A) dopamine receptor (Homo sapiens) AC50 of COc1cc(N2CCC(N3CCN(C)CC3)CC2)ccc1Nc1ncc(Cl)c(Nc2ccccc2P(C)(C)=O)n1 is > 30 µM

The reported D(1A) dopamine receptor (Homo sapiens) AC50 of Cc1ccccc1N1CCN(CCc2nnc3n2CCCC3)CC1 is > 30 µM

The reported D(1A) dopamine receptor (Homo sapiens) AC50 of O=[N+]([O-])c1ccc(O)c2ncccc12 is > 30 µM

The reported D(1A) dopamine receptor (Homo sapiens) AC50 of CN1CCC(=C2c3ccccc3Sc3ccccc32)CC1 is 0.0552 µM

The reported D(1A) dopamine receptor (Homo sapiens) AC50 of OC[C@H]1O[C@@](CO)(O[C@H]2O[C@H](CO)[C@@H](O)[C@H](O)[C@H]2O)[C@@H](O)[C@@H]1O is > 30 µM

The reported D(1A) dopamine receptor (Homo sapiens) AC50 of NCC(CC(=O)O)c1ccccc1 (centres undefined) is > 30 µM

The reported D(1A) dopamine receptor (Homo sapiens) AC50 of CC(C)(C)NC[C@H](O)COc1cccc2c1CCCC2=O is > 30 µM

The reported D(1A) dopamine receptor (Homo sapiens) AC50 of CCOC(=O)N1CSC[C@H]1C(=O)O is > 30 µM

The reported D(1A) dopamine receptor (Homo sapiens) AC50 of CN1CCCCC1CCN1c2ccccc2Sc2ccc([S+](C)[O-])cc21 (centres undefined) is 0.0712 µM

The reported D(1A) dopamine receptor (Homo sapiens) AC50 of CCc1nc(C(N)=O)c(Nc2ccc(N3CCC(N4CCN(C)CC4)CC3)c(OC)c2)nc1NC1CCOCC1 is > 30 µM

The reported D(1A) dopamine receptor (Homo sapiens) AC50 of CN(C)[C@@H]1C(O)=C(C(N)=O)C(=O)[C@@]2(O)C(O)=C3C(=O)c4c(O)ccc(Cl)c4[C@@](C)(O)[C@H]3C[C@@H]12 is > 30 µM

The reported D(1A) dopamine receptor (Homo sapiens) AC50 of CC(CN1CC(=O)NC(=O)C1)N1CC(=O)NC(=O)C1 (centres undefined) is > 30 µM

The reported D(1A) dopamine receptor (Homo sapiens) AC50 of N[C@@H](CO)C(=O)O is > 30 µM

The reported D(1A) dopamine receptor (Homo sapiens) AC50 of Cc1onc(-c2ccccc2)c1C(=O)N[C@@H]1C(=O)N2[C@@H]1SC(C)(C)[C@@H]2C(=O)O is > 30 µM

The reported D(1A) dopamine receptor (Homo sapiens) AC50 of CN1CCN(C2=Nc3ccccc3Oc3ccc(Cl)cc32)CC1 is 0.0245 µM

The reported D(1A) dopamine receptor (Homo sapiens) AC50 of CC(=O)Oc1cc(C(F)(F)F)ccc1C(=O)O is > 30 µM

The reported D(1A) dopamine receptor (Homo sapiens) AC50 of C[N+](C)(C)C[C@H](O)CC(=O)[O-] is > 30 µM

The reported D(1A) dopamine receptor (Homo sapiens) AC50 of O=C(O)COc1ccc(C(=O)c2cccs2)c(Cl)c1Cl is > 30 µM

The reported D(1A) dopamine receptor (Homo sapiens) AC50 of NC(=O)OCC(O)COc1ccc(Cl)cc1 (centres undefined) [CHLORPHENESIN CARBAMATE] is > 30 µM

The reported D(1A) dopamine receptor (Homo sapiens) AC50 of COc1cc2nccc(Oc3ccc(NC(=O)C4(C(=O)Nc5ccc(F)cc5)CC4)cc3)c2cc1OC [CABOZANTINIB] is 4.42 µM

The reported D(1A) dopamine receptor (Homo sapiens) AC50 of C=CCN1CC[C@]23CCCC[C@H]2[C@H]1Cc1ccc(O)cc13 is > 30 µM

----------
Please consider the recorded AC50 for Adenosine receptor A3 (Homo sapiens) in what follows.

Nc1cc(-c2ccncc2)c[nH]c1=O [INAMRINONE] yielded AC50 of > 30 µM

COCC1=C(C(=O)O)N2C(=O)[C@@H](NC(=O)/C(=N\OC)c3csc(N)n3)[C@H]2SC1 [CEFPODOXIME] yielded AC50 of > 30 µM

Cc1ncc2n1-c1ccc(Cl)cc1C(c1ccccc1F)=NC2 [MIDAZOLAM] yielded AC50 of > 30 µM

Clc1ccc(C(Cn2ccnc2)OCc2ccsc2Cl)c(Cl)c1 (stereo not drawn) [TIOCONAZOLE] yielded AC50 of 6.43 µM

CCOC(=O)C1=C(C)NC(C)=C(C(=O)OC)C1c1cccc([N+](=O)[O-])c1 (stereo not drawn) [NITRENDIPINE] yielded AC50 of > 30 µM

C[C@]12C=CC(=O)N[C@@H]1CC[C@@H]1[C@@H]2CC[C@]2(C)[C@@H](C(=O)Nc3cc(C(F)(F)F)ccc3C(F)(F)F)CC[C@@H]12 [DUTASTERIDE] yielded AC50 of > 10 µM

Clc1ccc2c(N3CCN(CCCN4CCN(c5ccnc6cc(Cl)ccc56)CC4)CC3)ccnc2c1 [PIPERAQUINE] yielded AC50 of > 30 µM

Cc1noc(NS(=O)(=O)c2ccc(N)cc2)c1C [SULFISOXAZOLE] yielded AC50 of > 10 µM
